Observed property: melting point

Worked examples follow.
Compound	melting point
CC1=C(CC(=O)N(C)O)c2cc(F)ccc2/C1=C\c1ccc(S(C)=O)cc1 (stereo not drawn)	156 to 160 °C
N#Cc1ccc(CN2CCN(c3ccncc3)CC2)cc1	137 to 138 °C

Switching to the query record.
Find the recorded melting point belonging to `COC(=O)C(NC(=O)Nc1ccc(C=NO)cc1)C(=O)OC` and report it. 162 °C

###

Here, each record is paired with measured melting point data.

Compound	Result
OP(O)C1(NC(c2ccccc2)c2ccccc2)CCCCC1	194 to 196 °C
O=C(Nc1ccc(S(=O)(=O)C(F)(F)F)cc1Cl)c1c(O)c(C23CC4CC(CC(C4)C2)C3)cc2c1CCC2	218 to 219 °C
C=CCCC1C=CCC2=C1C(=O)C1=C(CCCC1)C2=O (centres undefined)	47 to 48 °C
CC(C)(C)OC(=O)C[C@H](NC(=O)c1cccc(NC(=O)Cc2ccc(C(=N)N)cc2)c1)C(=O)N[C@@H](Cc1ccccc1)C(=O)OC(C)(C)C	125 °C
COc1cc2nc(C(N)=O)sc2cc1OC	211 to 212 °C

Give its melting point value. Item: `O=[N+]([O-])c1c(F)cc(N2CCOCC2)cc1F` 112 to 114 °C

Entry `CN(C(=O)Nc1ccc(Cl)c(Cl)c1)S(=O)(=O)C(C)(C)C` has what melting point? 116 °C

Could you tell me which melting point is on file for `N#CC1(Nc2ccccc2)CCCCC1` ? 67 to 69 °C

If you can, please state the reported melting point value of `CCc1n[nH]c(CC)c1Cc1cc(C#N)cc(C#N)c1` . 141 to 143 °C

Need melting point of `Cn1c2c(ccc1=O)C(=O)CCC2` , thanks. 174 to 176 °C

Any idea what melting point was measured for `OCc1cccc2nc(-c3ccccc3)oc12` ? 131 °C

###

melting point listing for selected compounds.

Study these solved cases before continuing.
O=C(OCc1ccccc1)[C@H](Cc1ccc(-c2ccccc2)cc1)NCP(=O)(Oc1ccccc1)Oc1ccccc1 85 to 86 °C
CCNC(=O)c1ccc(-n2nnc(C(=O)NC3CC3)c2COCc2ccccc2)c(O)c1 146 °C

Let us move to another entry and its melting point.
State the recorded melting point for this entry: `CCc1nc2c(cnn2CC)c(NC2CCOCC2)c1CNC(=O)c1cccc(C(=O)NCc2cc(Cl)cc(-c3cccc(C=O)c3)c2)c1` 123 to 127 °C

###

List of melting point values.

// below: answered compounds
Compound	Result
COC(=O)Cc1nc(-c2ccccc2)c(-c2ccccc2)s1	65 to 67 °C
COc1ccc2ccc(OCc3ccc4ccccc4n3)cc2c1	113 to 114 °C
COc1cccc(Oc2c(Cl)nc(-c3cccs3)nc2NS(=O)(=O)c2ccc(C(C)(C)C)cc2)c1	206 to 207 °C

What value of measured melting point is listed for `O=C(O)c1cnc2n(c1=O)CCc1cc(O)c(O)cc1-2` ? 308 to 314 °C

Entry `COc1cc2ncnc(N3CCN(C(=O)Nc4ccc(N=Nc5ccccc5)cc4)CC3)c2cc1OC` : reported melting point = ? 244 to 246 °C

Which melting point is listed for CS(=O)(=O)N1CCCC(NC(=O)C(CC2CCCC2)NC(=O)c2ccco2)C(=O)C1 (stereo not drawn) ? 158 to 161 °C

Consider the compound `COc1ccc(N(C)c2nc(N)nc3[nH]c4cccc(Cl)c4c23)cc1` and give its measured melting point. 163 to 164 °C

# melting point lookup, item `O=C(Nc1ccc(C2(O)CCN(C(=O)OCc3ccccc3)CC2)cc1)OCc1ccccc1` 156 to 158 °C

###

Below, each of the compounds is paired with its reported melting point value.

Compound	Result
CCOC(=O)c1cc(NCc2ccccc2)c(Oc2ccccc2)c(S(=O)(=O)N(C)C)c1	154 to 155 °C
OC1CCN(c2nc(-c3ccccc3)nc3ccccc23)CC1	165 to 167 °C
COc1ccc(-c2ccc(C3C(CCC(O)c4ccc(F)cc4)C(=O)N3c3ccc(F)cc3)cc2)cc1 (stereo unspecified)	103 °C
COC(=O)c1cc(N2C(=O)C3C4CC4CN3C2=O)c(F)cc1Cl (stereo unspecified)	59 to 62 °C
COc1ccnc(C(C)Sc2nc3cc(OC(F)(F)C(F)F)ccc3[nH]2)c1 (stereo unspecified)	78 to 81 °C

Next item in the queue.
Fill in: melting point of Cc1c(N2CCC(N)C2)c(F)cc2c(=O)c(C(=O)O)cn(C3COC3)c12 (stereo unspecified) is ___ > 230 °C

###

Property: melting point; scope: individual compounds
Return type: number; implicit unit °C.

Chemical smiles	Number
N#Cc1ccc(N(Cc2ccc(Br)cc2)n2cnnc2)cc1	203
NS(=O)(=O)c1cccc(-c2cc(-c3nc(-c4ccc(C(F)(F)F)cc4)cc(C(F)F)n3)ccn2)c1	234

Then there is this compound:
What does the data say about its melting point? Entry: `CCC(=O)Nc1ccc(-c2ccc(C(=O)N3CCN4CCC3CC4)o2)cc1` 264

###

The entries below come with measured melting point values attached.

Compound	melting point
C=CC(=O)Nc1ccc2c(Nc3cccc(Cl)c3)ncnc2c1	296 to 298 °C
CCn1c(=O)n(Cc2ccccc2)c(=O)c2c(Cl)cc(Cl)cc21	78 to 82 °C

melting point for `Cc1c(CC(=O)O)c2cc(O)ccc2n1C(=O)c1cccc(Cl)c1` ? 158 to 160 °C

Look up melting point for this compound: `COc1nc(C(F)(F)C(F)(F)F)cc(=O)n1-c1cc(C(=O)OC(C)C)c(Cl)cc1F` 82 to 84 °C

melting point for Cc1ccc(S(=O)(=O)ON=C2CC(c3ccccc3)Oc3ccccc32)cc1 (stereo not given) ? 141 to 143 °C

###

Observed property: melting point

Study these solved cases before continuing.
COc1cc(C=CC(=O)Nc2c(OC)nc3c(C)cc(C)cc3c2-c2ccccc2Cl)cc(OC)c1OC(C)=O 230 to 231 °C
O=C(O)CCc1oc(-n2cnc3ccccc32)nc1-c1ccc(Cl)cc1 217 to 218 °C

Continue with the molecule presented below.
Would you kindly share the measured melting point for `COc1cc(C#N)ccc1-c1nc2cc3c(cc2[nH]1)NC(=O)C3(C)C` ? 304 to 312 °C

###

Observed property: melting point

The cases that follow already have their melting point on record.
Molecule	Observed property	Result
CCCCNc1cccc([N+](=O)[O-])c1C#N	melting point	72 to 74 °C
O=C(O)Cc1cccc(Oc2cccc(-c3nnc(Nc4ccc(Cl)c(Cl)c4)s3)c2)c1	melting point	183 to 184 °C
CC(Cn1cncn1)(O[Si](C)(C)C)c1ccc(F)cc1F (stereo not given)	melting point	51 to 53 °C
Cn1cccc(O)c1=O	melting point	129 to 131 °C

Please examine the following record next.
What value of melting point has been recorded for this entry: `COc1nc(Cl)cnc1NC(=O)OCC(C)C` 90 to 91 °C

###

Readings of melting point for the listed compounds

Example entries begin here.
Compound	melting point
COc1ccc2c(c1)Sc1ccc(F)cc1C(O)C2 (stereo not drawn)	74 to 76 °C
CCOC(=O)c1cn(-c2ccc(F)c(NC(=O)OC(C)(C)C)c2F)c2nc(Cl)c(F)cc2c1=O	128 to 131 °C
CC(=NNC(=O)OC1CC(C)CCC1C(C)C)c1ccncc1 (stereo not drawn)	188 °C
COc1ccc(C(Cc2ccncc2)c2ccc(C(=O)O)cc2)cc1OC1CCCC1 (stereo not drawn)	161 to 163 °C
O=c1[nH]c(=O)n(Cc2cccc(OCc3noc(-c4ccc(Cl)cc4)n3)c2)o1	159 to 160 °C

What measured melting point goes with `CC[C@H](C)COc1ccc(O)cc1` ? 44 to 45 °C

If you can, please state the reported melting point value of Cc1c(C)c(N2C(=O)c3cc(Cl)c(Cl)cc3C2=O)c(C)c2c1OC(C)(C)C2c1ccc(C(C)C)cc1 (stereo not drawn) . 237 to 239 °C

Reported melting point for `COc1cn(-c2cccc(C(F)(F)F)c2)nc(C(C)=O)c1=O` : what is it? 155 to 156 °C

What value of measured melting point is listed for CC(=O)SC(CC(=O)c1ccc(F)cc1)C(=O)O (stereo not drawn) ? 108 to 110 °C

Look up melting point: `NS(=O)(=O)Oc1ccc([N+](=O)[O-])c(C(F)(F)F)c1` 95 to 97 °C

Please report the recorded melting point for `CC(C)(C)Nc1nc(N2CCCC2)cc(N2CCNCC2)n1` . 162 to 165 °C

Field request: melting point | item: O=C(NC(c1ccc([N+](=O)[O-])cc1)P(=O)(Oc1ccccc1)Oc1ccccc1)N(c1ccccc1)c1ccccc1 (stereo not drawn) 157 to 162 °C

// returns reported melting point for input CCOC(=O)[C@H]1CC(OC(C)=O)CN1S(=O)(=O)c1ccc(C)cc1 (stereo partly drawn) 82 to 83 °C

Quick one: melting point of CC1=NC(C)(COc2ccc(NC(=O)c3cc(F)cc(N4CCOCC4)c3)c3ccccc23)CO1 (stereo not drawn) ? 203 to 206 °C

Quick check: melting point of `Nc1cccc(Cc2n[nH]c(=O)c3ccccc23)c1` ? 175 to 177 °C

Any idea what melting point was measured for COC(=O)c1ccc(C(O)COc2ccc3c(c2)C(C)(C)CCC3(C)C)cc1 (stereo not drawn) ? 92 to 96 °C

Tell me the measured melting point of COc1c(N2CC(C)C(N)C(C)(C)C2)c(F)cc2c(=O)c(C(=O)O)cn(C3CC3)c12 (stereo not drawn) , please. 218 to 220 °C

Please give the measured melting point for this compound: CSC1CC(=O)N1CC(=O)OCc1ccccc1 (single isomer, unassigned; (-)) 38 to 40 °C

# query: melting point of entry `Clc1cc(N2CCNCC2)nc(N2CCCC2)n1` 89 to 100 °C

Query (compound): `CONS(=O)(=O)c1ccc(Cl)s1` ; field requested: melting point 65.5 to 66.5 °C

Query: melting point; subject: `COC(=O)CCCc1cc2nc(Cl)ccc2n1S(=O)(=O)c1ccc(-c2ccccc2)cc1` 122 to 124 °C

Requested read-out: melting point. Entry: `CCOC(=O)Cc1c(-c2ccccc2)n[nH]c1-c1ccccc1` 117 to 118 °C

So what does the record say about melting point for `CCCc1nc(-n2cccc2)c(C#N)[nH]1` ? 75 to 78 °C

Return reported melting point; argument: `Cc1ccc(Br)c(C)c1C(=O)O` 121 °C

Which value of melting point has been reported for `CCOC(=O)Cn1c2c([nH]c(=O)c1=O)CCC1=C2C=C(n2ccc(N3CCN(c4ccc([N+](=O)[O-])cc4)CC3)c2)CC1` in the records? 229 °C

What value of melting point has been recorded for this entry: CS(=O)c1ccc(-c2nn3c(c2-c2ccncc2)NCCC3)cc1 (stereo not drawn) 201 to 202 °C

Values from a melting point compilation (Tetko et al.; mined from patent text by program, amines drawn as free bases though some values may be those of a salt)
